growth at 100 µM: recorded values
- Test system: MDA-MB-231
- test-description: Antiproliferative activity against human MDA-MB-231 cells assessed as cell growth at 10^-4 M after 48 hrs by sulforhodamine B assay
- Format: functional
- experimental-parameters: MDA-MB-231, 48 h, read-out: Activity

>  <structure-notation>
CNC(=O)c1cc(Oc2ccc3nc(NC(=O)Nc4ccc(Cl)c(C(F)(F)F)c4)sc3c2)ccn1

>  <study-target>
MDA-MB-231

>  <growth at 100 µM [%]>
-53

$$$$
>  <structure-notation>
CNC(=O)c1cc(Oc2ccc3nc(NC(=O)Nc4cc(C(F)(F)F)cc(C(F)(F)F)c4)sc3c2)ccn1

>  <study-target>
MDA-MB-231

>  <growth at 100 µM [%]>
-59

$$$$
>  <structure-notation>
CNC(=O)c1cc(Oc2ccc3nc(NC(=O)Nc4ccc(Cl)c(Cl)c4)sc3c2)ccn1

>  <study-target>
MDA-MB-231

>  <growth at 100 µM [%]>
-44

$$$$
>  <structure-notation>
CNC(=O)c1cc(Oc2ccc3nc(NC(=O)c4cc(C(F)(F)F)cc(C(F)(F)F)c4)sc3c2)ccn1

>  <study-target>
MDA-MB-231

>  <growth at 100 µM [%]>
-67

$$$$
